system: Saccharomyces cerevisiae; test: protein stability index of tFT-peptide fusion (C-terminal peptide) (PSI (0-1 scale)); higher = more stable (slower turnover); details: genetic background: das1 deletion; temperature: 30 C
I'd be grateful if you could share measured protein stability index for these entries.
Give only the figure.

(Q) Data request, read-out protein stability index, for NGLNWEVIEYHA [HRI1 C-terminal 12 aa]
(A) 0.724

(Q) For the sequence shown here, TILLFYPPLLKR [YDR544C C-terminal 12 aa] , give the reported protein stability index.
(A) 0.627

(Q) Recorded protein stability index for VQHDPSVHTNQL [MAE1 C-terminal 12 aa] , please?
(A) 0.692

(Q) Recorded protein stability index for CLSGIGLFPVSS [YHL030W-A C-terminal 12 aa] , please?
(A) 0.685

(Q) Can you look up the measured protein stability index of VGVERLLNDRFR [ARP4 C-terminal 12 aa] for me?
(A) 0.694

(Q) I would be grateful if you could share the reported protein stability index for IQTINEVRTNYM [RSE1 C-terminal 12 aa] .
(A) 0.69

(Q) What measured protein stability index goes with HQVERKAVDIVL [YPR096C C-terminal 12 aa] ?
(A) 0.691

(Q) Suppose we examine the sequence TKCSLKNSISLT [VAB2 C-terminal 12 aa] ; what protein stability index value has been reported?
(A) 0.677

(Q) Item MYCASFQLPANV [TRM5 C-terminal 12 aa] has what recorded protein stability index?
(A) 0.673

(Q) Quick check: protein stability index of HKGSHFYIQLPI [YAL034C-B C-terminal 12 aa] ?
(A) 0.708

(Q) For the sequence KQGPKNLKKTKK [TAF13 C-terminal 12 aa] , what protein stability index is on record?
(A) 0.704

(Q) Suppose we examine the sequence EDHKVDGNKKED [VMA21 C-terminal 12 aa] ; what protein stability index value has been reported?
(A) 0.68

###

tested on: Saccharomyces cerevisiae; experiment: protein stability index of tFT-peptide fusion (C-terminal peptide) (PSI (0-1 scale)); higher = more stable (slower turnover); conditions: genetic background: wild type; temperature: 30 C
Lab note: class by protein stability index, see label 0: < 0.6; label 1: ≥ 0.6 and < 0.7; label 2: ≥ 0.7

(Q) Class for SKPYNSAIKDIT ?
(A) label 2

(Q) Lab log: SVHAMDCNGYAN — assign protein stability index category
(A) label 1

(Q) Where would YSGRYRTLVRCW land among the classes by reported protein stability index?
(A) label 0

(Q) Which category fits this record: RYGHSRLCLGFR
(A) label 1

(Q) Quick check: band for PPSPAPLHPSTS
(A) label 1

(Q) # bin lookup: classify GLSEPWVFFLRC by its protein stability index
(A) label 1

(Q) Please let me know in which category the item PLTFSFPVRVCD belongs.
(A) label 0

(Q) Hi there! Could you help me figure out the category for LFVVHCFLSVSS please?
(A) label 0

(Q) Please let me know in which category the item VFSTRLTSWYLT belongs.
(A) label 0

(Q) Bin? KTKNTQRKTEEN
(A) label 1

(Q) Which class holds YCAMVAVGVVGG ?
(A) label 0

(Q) Dear colleague, I would appreciate it if you could identify the bin for CLRWSRVGTVVV and reply at your convenience.
(A) label 0

(Q) Entry KVCIRFSCKIHM belongs to which category?
(A) label 1

(Q) Please classify: LSPLPRLQPASP
(A) label 1

(Q) Lab note: sort SLEWVGGRRWPI into the matching protein stability index band.
(A) label 2

(Q) # bin lookup: classify RLEMPSVRSCAV by its protein stability index
(A) label 1

(Q) Looking at EKQICKVVKIKE , which class would you pick?
(A) label 2

(Q) Category lookup for the sequence GESWGGVGDVRR
(A) label 2

(Q) Sort TFLYLSGRVVGL into one of the categories.
(A) label 1

(Q) Field: class (protein stability index) — entry: TLSPAPSPTPPP
(A) label 1

(Q) Band of CLMHTENCIRKA ?
(A) label 1

(Q) Sort into band: SPRLPPPRPLPS
(A) label 1

(Q) Entry RGFWRGGVVRGG belongs to which category?
(A) label 2

(Q) For this sequence, which bin applies? KIHILVVQIATR
(A) label 0

Hello, the source for this data is the supplement of paper PMC10724198, in case you need it.
